assayDetails: Solution Stability Assay
Format: physicochemical
settings: sodium acetate buffer with 30% acetonitrile, pH 4; read-out: Stability (t1/2, h) pH 4.0 (converted)
endpoint: half-life (h)

structure=CN1C(=O)[C@@H](NC(=O)[C@H](CCC(F)(F)F)[C@H](CCC(F)(F)F)C(=O)NSCCN)N=C(c2ccccc2)c2ccccc21 observedvalue=215
structure=CN1C(=O)[C@@H](NC(=O)[C@H](CCC(F)(F)F)[C@H](CCC(F)(F)F)C(=O)NCN2CCCCC2)N=C(c2ccccc2)c2ccccc21 observedvalue=250
structure=N[C@@H](CSNC(=O)[C@@H](CCC(F)(F)F)[C@@H](CCC(F)(F)F)C(=O)N[C@H]1N=C(c2ccccc2)c2ccccc2NC1=O)C(=O)O observedvalue=335
